tested on: HT29 cells; test: Determination of binding constant (plate reader fluorescence); parameters: species or system human; conditions: summary of results

{"SUBSTANCE": "KCCFPAQ-FITC [FITC-Peptide 2, KCCFPAQ with FITC at the C-terminus on the side chain of lysine residue via GGGSK linker]", "Kd [nM]": 65}

* * *

tested on: colonic adenomas; assay: In vivo imaging with multi-spectral scanning fiber endoscope; design: species or system CPC; Apc mice; settings: 100 μM topical, 5 min
Where no end group is shown, it is not given here. The star is where a group is joined. 5‑TAMRA = CN(C)c1ccc2c(-c3ccc(C(=O)*)cc3C(=O)[O-])c3ccc(N(C)C)cc3[o+]c2c1; DEAC = CCN(CC)c1ccc2cc(C(=O)*)c(=O)oc2c1
MEASURED_QUANTITY: binding to colonic dysplasia/adenomas on fluorescence images

{"SUBSTANCE": "GGGAGGGAGGGK (5-TAMRA)-NH2 (GGGAGGGAGGGK(5‑TAMRA)-NH2; N-terminus assumed; SMILES C[C@H](NC(=O)CNC(=O)CNC(=O)CN)C(=O)NCC(=O)NCC(=O)NCC(=O)N[C@@H](C)C(=O)NCC(=O)NCC(=O)NCC(=O)N[C@@H](CCCCNC(=O)c1ccc(-c2c3ccc(N(C)C)cc3[o+]c3cc(N(C)C)ccc23)c(C(=O)[O-])c1)C(N)=O) [GGGAGGG-TAMRA, reference compound]", "TEST_VALUE": "minimal signal"}
{"SUBSTANCE": "GGGAGGGAGGGK (DEAC)-NH2 (GGGAGGGAGGGK(DEAC)-NH2; N-terminus assumed; SMILES CCN(CC)c1ccc2cc(C(=O)NCCCC[C@H](NC(=O)CNC(=O)CNC(=O)CNC(=O)[C@H](C)NC(=O)CNC(=O)CNC(=O)CNC(=O)[C@H](C)NC(=O)CNC(=O)CNC(=O)CN)C(N)=O)c(=O)oc2c1) [GGGAGGG-DEAC, reference compound]", "TEST_VALUE": "minimal signal"}
